Data origin: ChEMBL document CHEMBL1124135

molecular target: Potassium-transporting ATPase (Canis familiaris); assay: In vitro inhibitory activity against H+/K+ ATPase prepared from canine fundic mucosa
EXPERIMENTAL_ENDPOINT: IC50 (µM)
# unit: µM | format: bare number

## Task Under Potassium-transporting ATPase (Canis familiaris), report IC50 for COc1ccc2[nH]c([S+]([O-])Cc3cc(C)ccc3N)nc2c1 (centres undefined)
## Result 4.2

Kindly consider the entry below.
## Task Under Potassium-transporting ATPase (Canis familiaris), report IC50 for CCOc1ccc2[nH]c([S+]([O-])Cc3cc(C)ccc3N)nc2c1 (centres undefined)
## Result 5.3
